test: 3H-heparin binding assay (affinity and capacity); conditions: heparin bound at saturation
Square brackets hold non-standard residues; d marks the D form. Ends that are not written are not given here. 1Nal = N[C@@H](Cc1cccc2ccccc12)C(=O)O

{"columns": ["substance", "Heparin Capacity (ng)"],
 "data": [
  ["NVGLKFSISNANIKISGKWKAQKRFLK [BPI.3]", 264.5],
  ["KSKVGALIQLFHKK [BPI.36]", 80.2],
  ["IKISGKWKAKQRFLK [BPI.56]", 135.5],
  ["AKISGKWKAQKRFLK [BPI.15]", 145.4],
  ["KWKAQWRFLKKWKAQWRFLKKWKAQWRFLK [BPI.99]", 971.4],
  ["KSKVWLIQLFHKK [BPI.11]", 290.5],
  ["IKISGKWKAQARFLK [BPI.24]", 427.6],
  ["KWKAQFRFLKKSKVGWLILLFHKK [BPI.102]", 535.2],
  ["IKISGKWAAQKRFLK [BPI.22]", 135.7],
  ["IKISGKWKAFKRFLK [BPI.81]", 318.4],
  ["KSKVGWLIALFHKK [BPI.39]", 335.6],
  ["KSKVGWLILLFHKK [BPI.86]", 208.4],
  ["IKISGKWKAQKRFLA [BPI.28]", 156.6],
  ["KSKVGWLIQLFAKK [BPI.42]", 369.1],
  ["GWLIQLFHKKIESALRNKMNS [BPI.55]", 166.1],
  ["KSKVGWLIFLFHKK [BPI.91]", 181.2],
  ["KSKVKWLIQLFHKK [BPI.97]", 252.2],
  ["KSKVLWLIQLFHKK [BPI.85]", 233.1],
  ["IKISGKAβ-(1-naphthyl)KAQKRFLK (IKISGK[1Nal]KAQKRFLK) [BPI.67]", 250.4],
  ["IAISGKWKAQKRFLK [BPI.16]", 127.25],
  ["IKISGKWKAQFDRFLK [BPI.76]", 144.4],
  ["KSKVGWLIQLFHKK-NH2 (C-terminus assumed) [BPI.13]", 369.1],
  ["KSKVGWLAQLFHKK [BPI.38]", 194.3],
  ["KWKAAARFLKKWKAQKRFLK [BPI.46]", 321.1],
  ["LQKELKRIKIPDYSDSFKIKHL [BPI.4]", 80.8],
  ["IKISGKWKAQFRFLK [BPI.73]", 413.4],
  ["IKISAKWKAQKRFLK [BPI.19]", 203.6]
]}
